Recorded IC50 by entry
target: A1 receptor (Homo sapiens, UniProt P30542); assay type: biochemical
Sequence (P30542 whole entry): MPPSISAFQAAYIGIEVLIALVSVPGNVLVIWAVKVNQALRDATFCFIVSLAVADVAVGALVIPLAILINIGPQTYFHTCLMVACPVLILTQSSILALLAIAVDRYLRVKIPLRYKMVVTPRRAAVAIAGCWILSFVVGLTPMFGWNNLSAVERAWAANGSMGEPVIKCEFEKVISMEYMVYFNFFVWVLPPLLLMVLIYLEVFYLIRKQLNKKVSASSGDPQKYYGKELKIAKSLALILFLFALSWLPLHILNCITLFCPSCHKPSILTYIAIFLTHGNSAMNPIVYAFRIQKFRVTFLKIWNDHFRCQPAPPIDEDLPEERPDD
Quantity Name: IC50

In [3]: df
Out[3]:
                                   compound                              study_system  quantity_name   result
0  Nc1nc(Cl)nc2c1ncn2[C@H]1C[C@H](O)[C@@H](CO)O1 [cladribine, 2-chloro-2′-deoxyadenosine]  A1 receptor (Homo sapiens, UniProt P30542)           IC50  > 10 µM
1  Nc1nc(F)nc2c1ncn2[C@@H]1O[C@H](CO)[C@@H](O)[C@@H]1O [fludarabine, 2-fluoroadenine-9-β-D-arabinofuranoside]  A1 receptor (Homo sapiens, UniProt P30542)           IC50  > 10 µM

---

Target: A2B receptor (Homo sapiens, UniProt P29275)
Sequence (P29275 1-332): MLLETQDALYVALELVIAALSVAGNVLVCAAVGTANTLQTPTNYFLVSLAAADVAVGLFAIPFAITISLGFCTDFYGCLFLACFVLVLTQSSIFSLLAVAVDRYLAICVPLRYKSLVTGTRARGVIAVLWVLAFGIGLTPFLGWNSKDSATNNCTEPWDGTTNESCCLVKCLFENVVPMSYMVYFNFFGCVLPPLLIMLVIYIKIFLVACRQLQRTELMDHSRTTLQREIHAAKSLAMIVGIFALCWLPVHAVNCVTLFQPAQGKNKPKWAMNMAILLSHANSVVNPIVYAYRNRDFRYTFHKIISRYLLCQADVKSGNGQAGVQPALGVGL
Assay: A2B receptor-mediated adenylyl cyclase activity, CHO membranes
Quantity Name: EC50

>>> print(df.to_string())
                                test_smiles                              study_system    result
0  Nc1nc(Cl)nc2c1ncn2[C@@H]1O[C@H](CO)[C@@H](O)[C@@H]1F  A2B receptor (Homo sapiens, UniProt P29275)  > 100 µM

---

Let's go through some recorded pKi values for adenosine A1 receptor (Homo sapiens) together.
pKi: −log10 of the molar value.
Quantity Name: pKi

>>> print(df.to_string())
                                   molecule                          study_system  result_number
0  Nc1nc(F)nc2c1ncn2[C@@H]1O[C@H](CO)[C@@H](O)[C@@H]1O [fludarabine, 2-fluoroadenine-9-β-D-arabinofuranoside]  adenosine A1 receptor (Homo sapiens)           5.65
1  Nc1nc(Cl)nc2c1ncn2[C@H]1C[C@H](O)[C@@H](CO)O1 [cladribine, 2-chloro-2′-deoxyadenosine]  adenosine A1 receptor (Homo sapiens)           5.78
2  Nc1nc(Cl)nc2c1ncn2[C@@H]1O[C@H](CO)[C@@H](O)[C@@H]1F [clofarabine]  adenosine A1 receptor (Homo sapiens)           6.61

---

target: any adenosine receptor subtype; test: Radioligand competition binding, stated for any adenosine receptor subtype; conditions: read-out: Ki at any of the adenosine receptor subtypes; any subtype
pKi: −log10 of the molar value.
Quantity Name: pKi

In [3]: df
Out[3]:
                                   compound  result
0  Nc1ccn([C@@H]2O[C@H](CO)[C@@H](O)C2(F)F)c(=O)n1 [gemcitabine, 2′,2′-difluoro-2′-deoxycytidine]  < 4.00
